Item-by-item account of pIC50
- TESTED SYSTEM: uPAR-expressing HEC-265 human endometrial adenocarcinoma cells (Homo sapiens, UniProt Q03405)
- Sequence (Q03405 23-335): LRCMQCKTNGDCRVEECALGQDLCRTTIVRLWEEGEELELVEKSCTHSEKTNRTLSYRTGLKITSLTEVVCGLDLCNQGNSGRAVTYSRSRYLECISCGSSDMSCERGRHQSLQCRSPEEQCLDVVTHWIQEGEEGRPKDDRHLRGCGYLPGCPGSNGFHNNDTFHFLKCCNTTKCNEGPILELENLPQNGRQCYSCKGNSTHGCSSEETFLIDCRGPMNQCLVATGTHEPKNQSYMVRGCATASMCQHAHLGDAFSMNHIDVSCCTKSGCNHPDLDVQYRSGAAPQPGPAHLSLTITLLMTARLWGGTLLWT
pIC50: −log10 of the molar value. *1 amine or outer side, *2 acyl side, *3 side chain or, on linkers, in order; H or OH if unused. Where a SMILES comes first, the peptide text is derived from it. Bridges are numbered along the chain shown (N, C = ends). [ ]: non-standard residue; d: D form. The star is where a group is joined. DOTA = O=C(O)CN1CCN(CC(=O)O)CCN(CC(=O)*)CCN(CC(=O)O)CC1; Pro(cis-4-F) = O=C(O)[C@@H]1C[C@H](F)CN1; Glutaryl = O=C(CCCC(=O)[*:2])[*:1]; Pentanoyl(4-Me) = CC(C)CCC(=O)*; Cit = NC(=O)NCCC[C@H](N)C(=O)O

CC[C@H](C)[C@@H]1NC(=O)[C@@H]2C[C@H](F)CN2C(=O)[C@@H]2CCCN2C(=O)[C@H](Cc2ccccc2)NC(=O)[C@H](Cc2ccc(O)cc2)NC(=O)[C@H](CCC(N)=O)NC(=O)[C@H](CCCNC(N)=O)NC(=O)[C@@H](NC(=O)CCC(C)C)CSSC[C@@H](C(N)=O)NC(=O)[C@H](CC(C)C)NC1=O [UPAR-307] ({Pentanoyl(4-Me)}-C[Cit]QYFP[Pro(cis-4-F)]ILC-NH2; disulfide 1-10): ≥ 8.00
CC[C@H](C)[C@@H]1NC(=O)[C@@H](C)NC(=O)[C@@H]2CCCN2C(=O)[C@H](Cc2ccccc2)NC(=O)[C@H](Cc2ccc(O)cc2)NC(=O)[C@H](CCCCNC(=O)CN2CCN(CC(=O)O)CCN(CC(=O)O)CCN(CC(=O)O)CC2)NC(=O)[C@H](CC(=O)O)NC(=O)[C@@H](NC(=O)[C@H](CC(C)C)NC(=O)[C@H](CC(=O)O)NC(C)=O)CSSC[C@@H](C(N)=O)NC(=O)[C@H](CC(C)C)NC1=O [UPAR-432] (Ac-DLCDK(DOTA)YFP[dA]ILC-NH2; disulfide 3-12): 7.50 to 7.90

[in] # input compound: CC[C@H](C)[C@@H]1NC(=O)[C@@H](C)NC(=O)[C@@H]2CCCN2C(=O)[C@H](Cc2ccccc2)NC(=O)[C@H](Cc2ccc(O)cc2)NC(=O)[C@H](CCC(N)=O)NC(=O)[C@H](CCCNC(N)=O)NC(=O)[C@@H](NC(=O)CCCC(=O)O)CSSC[C@@H](C(N)=O)NC(=O)[C@H](CC(C)C)NC1=O [UPAR-359] (Glutaryl-C[Cit]QYFP[dA]ILC-NH2; disulfide 1-10) ; wanted: its pIC50
[out] ≤ 6.90

The reported numbers originate from patent EP4610269A1.
